# EXPERIMENT_DESCRIPTION: in vivo
# CONDITIONS_USED: BALB/c nude, mouse, in vivo, iv, total radioactivity, % ID/g Stomach
Would you kindly list tissue uptake at 4 h for each of these compounds?
Give a bare numeral; the unit %ID/g is implied.

Return tissue uptake at 4 h (reported value) for this compound: C[C@@H](O)[C@H](NC(=O)[C@@H]1CSSC[C@H](NC(=O)[C@@H](Cc2ccccc2)NC(=O)CN2CCN(CC(=O)O)CCN(CC(=O)O)CCN(CC(=O)O)CC2)C(=O)N[C@@H](Cc2ccc(O)cc2)C(=O)N[C@H](Cc2c[nH]c3ccccc23)C(=O)N[C@@H](CCCCN)C(=O)N[C@@H]([C@@H](C)O)C(=O)N1)C(=O)O [^177Lu-C-1, metal not drawn, reference compound]
1.18

Return tissue uptake at 4 h (reported value) for this compound: C[C@@H](O)[C@H](NC(=O)[C@@H]1CSSC[C@H](NC(=O)[C@@H](Cc2ccccc2)NC(=O)COCCOCCNC(=O)COCCOCCNC(=O)[C@H](CCCCNC(=O)c2cccc(NC(=O)N[C@@H]3CN(C4CCCCC4)c4ccccc4N(CC(=O)C(C)(C)C)C3=O)c2)NC(=O)CN2CCN(CC(=O)O)CCN(CC(=O)O)CCN(CC(=O)O)CC2)C(=O)N[C@@H](Cc2ccc(O)cc2)C(=O)N[C@H](Cc2c[nH]c3ccccc23)C(=O)N[C@@H](CCCCN)C(=O)N[C@@H]([C@@H](C)O)C(=O)N1)C(=O)O [Compound 177Lu-I-39, metal not drawn]
6.28
